The reported measurements were obtained from ChEMBL document CHEMBL2331169.

# target.of.assay: GABA-A receptor; alpha-1/beta-2/gamma-2 (Rattus norvegicus) (UniProt P18508+P62813+P63138)
# experiment.summary: Agonist activity at rat GABAA alpha1beta3gamma2 receptor expressed in Xenopus oocytes assessed as stimulation of GABA-induced chloride current at 100 nM incubated 30 secs prior to GABA induction measured after 15 mins by two-electrode voltage clamp assay relative to control
# Assay type: cell-based
# measurement.setup: Oocyte
recorded.endpoint: Activity (%)
Your answer should be a plain number; it is taken to be in %.

C#Cc1ccc2c(c1)C(c1ccccc1)=NCc1c(C(=O)NC)ncn1-2 | 132
C#Cc1ccc2c(c1)C(c1ccccn1)=NCc1c(C(=O)NC)ncn1-2 | 117
C#Cc1ccc2c(c1)C(c1ccccn1)=NCc1c(-c3nc(C(C)C)no3)ncn1-2 | 117
C#Cc1ccc2c(c1)C(c1ccccc1)=NCc1c(-c3nc(C(C)C)no3)ncn1-2 | 107
C#Cc1ccc2c(c1)C(c1ccccc1F)=NCc1c(C(=O)NC)ncn1-2 | 152

Value sought: Activity, system GABA-A receptor; alpha-1/beta-2/gamma-2 (Rattus norvegicus) (UniProt P18508+P62813+P63138), item "C#Cc1ccc2c(c1)C(c1ccccc1F)=NCc1c(-c3nc(C(C)C)no3)ncn1-2" . Result: 140

----------
Catalogue of compounds with associated Activity
# target.of.assay: GABA A receptor alpha-5/beta-3/gamma-2 (Rattus norvegicus) (UniProt P18508+P19969+P63079)
# experiment.summary: Agonist activity at rat GABAA alpha5beta3gamma2 receptor expressed in Xenopus oocytes assessed as stimulation of GABA-induced chloride current at 1 uM incubated 30 secs prior to GABA induction measured after 15 mins by two-electrode voltage clamp assay relative to control
# Type: cell-based
# measurement.setup: Oocyte
Please don't drop the unit; write it after the number.

Some solved cases for reference:
C#Cc1ccc2c(c1)C(c1ccccn1)=NCc1c(-c3nc(C(C)C)no3)ncn1-2 | 252%
C#Cc1ccc2c(c1)C(c1ccccc1)=NCc1c(-c3nc(C(C)C)no3)ncn1-2 | 291%
C#Cc1ccc2c(c1)C(c1ccccc1)=NCc1c(C(=O)NC)ncn1-2 | 307%

Looking up "C#Cc1ccc2c(c1)C(c1ccccn1)=NCc1c(C(=O)NC)ncn1-2" , I see its Activity listed as 182%

Short answer for "C#Cc1ccc2c(c1)C(c1ccccc1F)=NCc1c(-c3nc(C(C)C)no3)ncn1-2" : Activity was 331%

For reference, reported Activity for "C#Cc1ccc2c(c1)C(c1ccccc1F)=NCc1c(C(=O)NC)ncn1-2" stands at 361%

----------
# target.of.assay: Gamma-aminobutyric acid receptor subunit alpha-3 (Rattus norvegicus)
# experiment.summary: Agonist activity at rat GABAA alpha3beta3gamma2 receptor expressed in Xenopus oocytes assessed as stimulation of GABA-induced chloride current at 1 uM incubated 30 secs prior to GABA induction measured after 15 mins by two-electrode voltage clamp assay relative to control
# Assay type: cell-based
# measurement.setup: Oocyte
Field 'label' (enum: 1 / -1). Set to 1 when Activity is strictly under 500%; else -1.

C#Cc1ccc2c(c1)C(c1ccccn1)=NCc1c(C(=O)NC)ncn1-2 | 1
C#Cc1ccc2c(c1)C(c1ccccn1)=NCc1c(-c3nc(C(C)C)no3)ncn1-2 | 1
C#Cc1ccc2c(c1)C(c1ccccc1)=NCc1c(-c3nc(C(C)C)no3)ncn1-2 | 1
C#Cc1ccc2c(c1)C(c1ccccc1)=NCc1c(C(=O)NC)ncn1-2 | -1

Switching to the query record.
query: For this compound, is Activity lower than 500%? "C#Cc1ccc2c(c1)C(c1ccccc1F)=NCc1c(-c3nc(C(C)C)no3)ncn1-2"
result: 1
